All values here come from patent US12686673B2.

Biological target: EGFR (A767_dupASV) expressing Ba/F3 stable cell line (Homo sapiens, UniProt P00533, DUP767-769, cells depend on it)
Sequence (P00533 with tags, fused parts or gaps DUP767-769): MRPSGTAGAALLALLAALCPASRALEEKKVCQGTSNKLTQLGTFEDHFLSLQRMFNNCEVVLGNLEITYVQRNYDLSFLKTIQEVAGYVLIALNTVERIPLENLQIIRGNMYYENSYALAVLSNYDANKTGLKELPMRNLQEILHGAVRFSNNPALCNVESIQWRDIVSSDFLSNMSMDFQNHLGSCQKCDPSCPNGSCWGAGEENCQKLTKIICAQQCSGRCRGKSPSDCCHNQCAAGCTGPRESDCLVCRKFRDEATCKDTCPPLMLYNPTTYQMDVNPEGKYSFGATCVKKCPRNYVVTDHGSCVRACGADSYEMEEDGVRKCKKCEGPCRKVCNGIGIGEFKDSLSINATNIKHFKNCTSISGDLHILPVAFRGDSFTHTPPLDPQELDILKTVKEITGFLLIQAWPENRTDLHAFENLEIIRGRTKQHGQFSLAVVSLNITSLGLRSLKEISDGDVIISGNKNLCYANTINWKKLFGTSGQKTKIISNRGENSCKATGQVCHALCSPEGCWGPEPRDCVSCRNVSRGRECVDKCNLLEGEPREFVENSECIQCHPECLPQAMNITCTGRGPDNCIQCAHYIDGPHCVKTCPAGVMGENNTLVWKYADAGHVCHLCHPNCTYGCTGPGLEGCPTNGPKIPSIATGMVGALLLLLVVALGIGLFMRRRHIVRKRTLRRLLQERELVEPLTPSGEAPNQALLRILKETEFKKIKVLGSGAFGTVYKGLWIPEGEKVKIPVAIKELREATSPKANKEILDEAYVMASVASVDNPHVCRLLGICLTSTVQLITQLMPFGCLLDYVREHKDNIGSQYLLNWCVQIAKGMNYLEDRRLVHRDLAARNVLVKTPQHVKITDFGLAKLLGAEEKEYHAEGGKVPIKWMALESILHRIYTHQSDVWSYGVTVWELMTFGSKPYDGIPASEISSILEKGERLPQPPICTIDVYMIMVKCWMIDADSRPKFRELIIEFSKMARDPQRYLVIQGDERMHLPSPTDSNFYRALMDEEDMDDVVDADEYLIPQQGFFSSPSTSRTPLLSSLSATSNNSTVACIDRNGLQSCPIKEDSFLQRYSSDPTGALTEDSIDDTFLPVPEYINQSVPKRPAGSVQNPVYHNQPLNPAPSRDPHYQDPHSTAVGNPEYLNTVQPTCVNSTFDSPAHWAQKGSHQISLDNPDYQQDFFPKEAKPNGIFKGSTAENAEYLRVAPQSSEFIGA
Experiment: Cellular proliferation (Alamar Blue) assay, EGFR A767_dupASV Ba/F3
Assay type: cell-based
Conditions: 72 hr, read-out: A767 IC50
# strict inequality: GI50 < 90 nM yields true, everything else yields false

line_notation=C=CC(=O)Nc1ccc(F)c(Nc2nc(Nc3cnn(C)c3)ncc2-c2ccnc(Cl)c2)c1 group_label=true
line_notation=C=CC(=O)Nc1ccc(F)c(Oc2nc(Nc3cnn(C4CCN(C)CC4)c3)ncc2Cl)c1 group_label=false
line_notation=C=CC(=O)Nc1ccc(F)c(Nc2nc(Nc3cnn(C)c3)ncc2-c2ccn3ccnc3c2)c1 group_label=false
line_notation=C=CC(=O)Nc1ccc(F)c(Nc2nc(Nc3cnn(C)c3)ncc2C(=O)N(C)c2ccccc2)c1 group_label=false
line_notation=C=CC(=O)Nc1cccc(Nc2nc(Nc3cnn(C)c3)ncc2-c2ccc(C(F)(F)F)nc2)c1 group_label=true
line_notation=CN(C)C/C=C/C(=O)Nc1cccc(Nc2nc(Nc3cnn(C)c3)ncc2NCc2ccccc2)c1 group_label=false
line_notation=C#CC(=O)Nc1ccc(F)c(Nc2nc(Nc3cnn(C)c3)ncc2-c2ccc(C(F)(F)F)cc2)c1 group_label=false

----------
pIC50 overview
Tested on: A431 cells
Assay: Cellular proliferation (Alamar Blue) assay, A431
Type: cell-based
Conditions: Homo sapiens, A-431; A431 cells, 72 hr, Alamar Blue; read-out: A431 IC50
pIC50: −log10 of the molar value.
Readout: pIC50

line_notation=C=CS(=O)(=O)Nc1ccc(F)c(Nc2nc(Nc3cnn(C)c3)ncc2-c2ccc(C(F)(F)F)cc2)c1 censoring_operator== readout_value=5.40
line_notation=C=CC(=O)Nc1ccc(F)c(Nc2nc(Nc3cnn(C)c3)ncc2C#CC2CC2)c1 censoring_operator== readout_value=5.74
line_notation=C=CC(=O)Nc1cccc(Oc2nc(Nc3cnn(C)c3)ncc2N2CCN(C)CC2)c1 censoring_operator== readout_value=5.41
line_notation=C=CC(=O)Nc1ccc(F)c(Nc2nc(Nc3cnn(C)c3)ncc2-c2cccc3ccncc23)c1 censoring_operator== readout_value=5.46
line_notation=C=CC(=O)Nc1ccc(F)c(Nc2nc(Nc3cnn(CC(C)(C)O)c3)ncc2-c2ccc(C(F)(F)F)cc2)c1 censoring_operator== readout_value=6.36
line_notation=C=CC(=O)Nc1ccc(F)c(Nc2nc(Nc3cccc(CN(C)C)c3)ncc2-c2ccc(C(F)(F)F)cc2)c1 censoring_operator== readout_value=5.80
line_notation=C=CC(=O)Nc1ccc(F)c(Nc2nc(Nc3ccc(N(C)CCN(C)C)cc3)ncc2Cl)c1 censoring_operator== readout_value=5.31
line_notation=C=CC(=O)Nc1cc(F)cc(Nc2nc(Nc3cnn(C)c3)ncc2-c2ccc(Br)cc2)c1 censoring_operator== readout_value=7.31
line_notation=C=CC(=O)Nc1cc(Nc2nc(Nc3cnn(C)c3)ncc2-c2ccc(C(F)(F)F)cc2)ccn1 censoring_operator== readout_value=5.89
line_notation=C=CC(=O)Nc1ccc(F)c(Nc2nc(Nc3csc(C)c3)ncc2-c2ccc(C(F)(F)F)cc2)c1 censoring_operator=< readout_value=5.00
line_notation=C=CC(=O)Nc1cccc(Nc2nc(Nc3cnn(C)c3)nc(NC)c2-c2ccc(C(F)(F)F)cc2)c1 censoring_operator=< readout_value=5.00
line_notation=C=C=CC(=O)Nc1ccc(F)c(Nc2nc(Nc3cnn(C)c3)ncc2-c2ccc(C(F)(F)F)cc2)c1 censoring_operator== readout_value=5.01
line_notation=C=CC(=O)Nc1cc(F)cc(Nc2nc(Nc3cnn(C)c3)ncc2-c2ccc(CC(F)(F)F)cc2)c1 censoring_operator== readout_value=8.22
line_notation=C=CC(=O)Nc1ccc(F)c(Nc2nc(Nc3cnn(C)c3)ncc2-c2ccc3ccoc3c2)c1 censoring_operator== readout_value=6.76
line_notation=C=CC(=O)Nc1ccc(F)c(Nc2nc(Nc3cn(C)nc3Cl)ncc2-c2ccc(C(F)(F)F)cc2)c1 censoring_operator== readout_value=7.20
line_notation=C=CC(=O)Nc1ccc(F)c(Nc2nc(Nc3cnn(C(C)(C)C#N)c3)ncc2Br)c1 censoring_operator== readout_value=5.53
line_notation=[2H]C([2H])=CC(=O)Nc1ccc(F)c(Nc2nc(Nc3cnn(C([2H])([2H])[2H])c3)ncc2-c2ccc(C(F)(F)F)cc2)c1 censoring_operator== readout_value=6.65
line_notation=C=CC(=O)Nc1cccc(Nc2nc(Nc3cnn(C)c3)ncc2F)c1 censoring_operator== readout_value=6.28
line_notation=CN(C)C/C=C/C(=O)Nc1ccc(F)c(Nc2nc(Nc3cnn(C)c3)ncc2-c2ccc(Br)cc2)c1 censoring_operator== readout_value=6.10
line_notation=C=CC(=O)Nc1ccc(F)c(Nc2nc(Nc3cc(C)ns3)ncc2-c2ccc(C(F)(F)F)cc2)c1 censoring_operator== readout_value=5.80
line_notation=C=CC(=O)Nc1ccc(F)c(Nc2nc(Nc3cnn(CCN(C)C)c3)ncc2Cl)c1 censoring_operator== readout_value=6.27
line_notation=C=CC(=O)Nc1cccc(Nc2nc(Nc3cnn(C)c3)ncc2-c2ccc(CC(F)(F)F)cc2)c1 censoring_operator== readout_value=8.40
line_notation=C=CC(=O)Nc1cccc(Nc2nc(Nc3cnn(C)c3)ncc2-c2ccc(Br)cc2)c1 censoring_operator== readout_value=7.66
line_notation=C=CC(=O)Nc1cccc(-n2c3cc(C(F)(F)F)ccc3c3cnc(Nc4cnn(C)c4)nc32)c1 censoring_operator== readout_value=5.27
line_notation=C=CC(=O)Nc1ccc(F)c(Nc2nc(N(C)c3cnn(C)c3)ncc2-c2cc(F)cc(OC)c2)c1 censoring_operator=< readout_value=5.00
line_notation=C=CC(=O)Nc1cc(Br)cc(Nc2nc(Nc3cnn(C)c3)ncc2-c2ccc(C(F)(F)F)cc2)c1 censoring_operator=< readout_value=5.01
line_notation=C=CC(=O)Nc1ccc(F)c(Nc2nc(Nc3cnn(C)c3)nc3ccc(C(F)(F)F)cc23)c1 censoring_operator== readout_value=5.38
line_notation=C=CC(=O)Nc1ccc(F)c(Nc2nc(Nc3cnoc3)ncc2-c2ccc(C(F)(F)F)cc2)c1 censoring_operator== readout_value=6.20
line_notation=C=CC(=O)Nc1ccc(F)c(Nc2nc(Nc3nc(C)cs3)ncc2-c2ccc(C(F)(F)F)cc2)c1 censoring_operator== readout_value=5.74
line_notation=C=CC(=O)Nc1ccc(F)c(Nc2nc(Nc3cnn(C)c3)ncc2-c2cccc3cc[nH]c23)c1 censoring_operator== readout_value=5.31
